Here the recorded Kd is given for each entry.
TARGET_OF_ASSAY: T1, recombinant cynomolgus PILRA (SEQ ID NO:120) (cynomolgus monkey)
T1 construct: also called cyno PILRA
EXPERIMENTAL_PROTOCOL: SPR, Carterra LSA, antibody amine-coupled, kinetic fit
RECORDED_METRIC: Kd (nM)

[
  {
    "BINDER": "X18 (antibody, human IgG4, V domains shown, conditioned media in the HEK293F assays) VH: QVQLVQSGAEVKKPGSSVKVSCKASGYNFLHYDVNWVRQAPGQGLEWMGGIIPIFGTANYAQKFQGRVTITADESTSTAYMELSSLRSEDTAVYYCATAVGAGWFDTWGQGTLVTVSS VL: DIVMTQSPDSLAVSLGERATINCKSSQSVWFDPNNKNYLAWYQQKPGQPPKLLIYWASTRESGVPDRFSGSGSGTDFTLTISSLQAEDVAVYYCQQYFEEPYTFGQGTRLEIK",
    "UNIT_DESCRIPTOR": "nM",
    "READOUT_VALUE": 0.2
  },
  {
    "BINDER": "X19 (antibody, human IgG4, V domains shown) VH: QVQLVQSGAEVKKPGSSVKVSCKASGYNFLHYDVNWVRQAPGQGLEWMGGIIPIFGTANYAQKFQGRVTITADESTSTAYMELSSLRSEDTAVYYCATAVGAGWFDPWGQGTLVTVSS VL: DIVMTQSPDSLAVSLGERATINCKSSQSVFFDENNKNYLAWYQQKPGQPPKLLIYWASTRESGVPDRFSGSGSGTDFTLTISSLQAEDVAVYYCQQYYEEPYTFGQGTRLEIK",
    "UNIT_DESCRIPTOR": "nM",
    "READOUT_VALUE": 0.1
  },
  {
    "BINDER": "X6 (antibody, human IgG4, V domains shown) VH: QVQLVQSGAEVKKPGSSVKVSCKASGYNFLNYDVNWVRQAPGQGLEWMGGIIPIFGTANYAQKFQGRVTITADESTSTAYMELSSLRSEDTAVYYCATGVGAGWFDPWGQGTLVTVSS VL: DIVMTQSPDSLAVSLGERATINCKSSQSVYFDVNNKNYLAWYQQKPGQPPKLLIYWASTRESGVPDRFSGSGSGTDFTLTISSLQAEDVAVYYCQQYFEEPYTFGQGTRLEIK",
    "UNIT_DESCRIPTOR": "nM",
    "READOUT_VALUE": 0.1
  },
  {
    "BINDER": "X9 (antibody, human IgG4, V domains shown) VH: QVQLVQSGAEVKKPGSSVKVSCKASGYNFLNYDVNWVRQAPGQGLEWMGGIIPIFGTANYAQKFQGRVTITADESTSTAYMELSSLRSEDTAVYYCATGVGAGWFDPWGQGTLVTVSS VL: DIVMTQSPDSLAVSLGERATINCKSSQSVFFDVNNKNYLAWYQQKPGQPPKLLIYWASTRESGVPDRFSGSGSGTDFTLTISSLQAEDVAVYYCQQYYEEPYTFGQGTRLEIK",
    "UNIT_DESCRIPTOR": "nM",
    "READOUT_VALUE": 0.1
  },
  {
    "BINDER": "X4 (antibody, human IgG4, V domains shown) VH: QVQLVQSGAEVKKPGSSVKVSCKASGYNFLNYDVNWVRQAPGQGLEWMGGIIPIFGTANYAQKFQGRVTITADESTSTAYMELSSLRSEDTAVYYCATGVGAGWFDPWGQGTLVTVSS VL: DIVMTQSPDSLAVSLGERATINCKSSQSVYFSPNNKNYLAWYQQKPGQPPKLLIYWASTRESGVPDRFSGSGSGTDFTLTISSLQAEDVAVYYCQQYFEEPYTFGQGTRLEIK",
    "UNIT_DESCRIPTOR": "nM",
    "READOUT_VALUE": 0.2
  }
]
